Taken from ChEMBL document CHEMBL1201862.

Test system: UACC-62
Assay: NCI tumour cell line growth inhibition, 48 h
Active and inactive are the calls of the source. Rule as the data show it: active = GI50 up to about 1.1 µM and inactive = higher.
Please answer using one outcome listed in yes (active), no (inactive)

Query :: Outcome logged for O=C(/C=C/c1ccc(Oc2cc(C(=O)/C=C/c3ccc(O)cc3)c(O)cc2O)cc1)c1ccc(O)cc1O in this assay:
Result :: no

Query :: Entry to check: O=C(NN1C(=O)CSC1c1ccc(C(F)(F)F)cc1)c1ccncc1 (stereo unspecified)
Result :: no

Query :: Entry to check: O=C1CSC(c2ccccc2O)N1c1ccc(-n2c(-c3ccccc3)nc3ccccc3c2=O)cc1 (stereo unspecified)
Result :: no

Query :: Entry to check: CC(C)(C)c1cc(C(=O)/C=C/c2ccc3c(c2)OCO3)cc(C(C)(C)C)c1O
Result :: no

Query :: Entry to check: CCN(CC)CCN1CCN=C2c3cc(OC)ccc3Nc3c([N+](=O)[O-])ccc1c32
Result :: yes

Query :: Entry to check: NC(=O)NC(=O)CCC(NS(=O)(=O)c1ccccc1)C(=O)NC(N)=O (stereo unspecified)
Result :: no

Query :: Entry to check: CCOc1ccc(/C=N\N2C(=O)c3ccccc3C2=O)cc1
Result :: no

Query :: Entry to check: CN1CCN(/C(N)=C(\C#N)C(=O)Nc2ccc(Cl)cc2)CC1
Result :: no

Query :: Entry to check: CN1C(c2ccccc2)=CC(=O)C(O)=C(c2ccccc2)S1(=O)=O
Result :: no

Query :: Entry to check: Cc1nn2c(C(=O)N/N=C/c3ccccc3O)c(C)nc2s1
Result :: no

Query :: Entry to check: CCCN(CCC)C(=O)c1nc(N)nc(-c2ccc(OC)cc2)c1-c1ccc(OC)cc1
Result :: no

Query :: Entry to check: COc1ccc(CN=C(N)N)c2ccccc12
Result :: no

Query :: Entry to check: COc1cccc(-c2nc(-c3cnccn3)n(C/C=C/c3ccccc3)n2)c1
Result :: no

Query :: Entry to check: COC(=O)CCC(=O)N1Cc2cc(C)ccc2N(C(=O)CCC(=O)OC)Cc2cc(C)ccc21
Result :: no

Query :: Entry to check: CCCCC(CC)C(=O)Oc1ccc(C(=O)c2ccccc2)c(O)c1 (stereo unspecified)
Result :: no

Query :: Entry to check: Cc1c2cccc-2c2cc(O)c3ccccc3c2n1-c1ccc(N(C)C)cc1
Result :: no

Query :: Entry to check: COC(=O)C1=C(c2ccc3c(c2)OCO3)OC(c2cc(OC)c(OC)c(OC)c2)C1 (stereo unspecified)
Result :: no

Query :: Entry to check: CCN(CC)Cc1cc(/N=N\c2c(O)ccc3c(/N=N\c4ccc(O)c(CN(CC)CC)c4)c(O)ccc23)ccc1O
Result :: no

Query :: Entry to check: N/C(=N\O)N/N=C/c1ncccc1O
Result :: no

Query :: Entry to check: Cc1ccccc1S(=O)(=O)OC1NS(=O)(=O)c2ccccc21 (stereo unspecified)
Result :: no

Query :: Entry to check: NC1CC2NC3CCCCC3NC2CC1N (stereo unspecified)
Result :: no
